This collection of values is drawn from patent US20230293738A1.

The binders listed here are annotated with their Kd.
Target: T1, human 4Ig-B7H3 (B7H3-4Ig-His) (human, UniProt Q5ZPR3 29-466)
T1 construct: Recombinant His-tagged protein immobilised on a CM5 chip; also called 41g-B7H3; human 4Ig-B7-H3 (dominant isoform); not shown: His tag
T1 sequence: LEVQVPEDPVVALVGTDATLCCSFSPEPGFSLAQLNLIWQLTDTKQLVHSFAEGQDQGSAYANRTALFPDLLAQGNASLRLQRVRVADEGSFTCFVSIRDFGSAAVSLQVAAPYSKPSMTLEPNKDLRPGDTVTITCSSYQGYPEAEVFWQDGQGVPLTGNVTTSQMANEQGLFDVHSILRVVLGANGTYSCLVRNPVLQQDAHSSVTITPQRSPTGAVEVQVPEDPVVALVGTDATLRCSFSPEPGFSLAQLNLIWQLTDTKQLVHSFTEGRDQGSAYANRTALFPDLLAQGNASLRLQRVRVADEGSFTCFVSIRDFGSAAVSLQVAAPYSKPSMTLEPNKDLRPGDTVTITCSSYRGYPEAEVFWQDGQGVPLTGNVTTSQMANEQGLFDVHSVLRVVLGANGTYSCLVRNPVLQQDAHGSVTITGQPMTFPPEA
Experiment: SPR, Biacore T200, 4Ig-B7H3-His on CM5 chip, 1:1 fit

Binder: 8H9 antibody conjugated with p-SCN-Bn-DOTA, CAR 2.4 (antibody, mouse IgG1, kappa, V domains shown, p-SCN-Bn-DOTA conjugated, CAR 2.4 per antibody; sites not stated, Chelator conjugate, not metal-labelled) VH: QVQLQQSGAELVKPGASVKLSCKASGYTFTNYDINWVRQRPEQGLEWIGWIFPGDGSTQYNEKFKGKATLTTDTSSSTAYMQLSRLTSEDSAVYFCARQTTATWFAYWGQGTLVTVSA VL: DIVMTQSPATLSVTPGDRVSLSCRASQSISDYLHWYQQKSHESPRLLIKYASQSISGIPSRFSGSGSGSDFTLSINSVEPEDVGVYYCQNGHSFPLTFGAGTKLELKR
Kd, nM: 8.61

Binder: 8H9 antibody conjugated with p-SCN-Bn-CHX-A″-DTPA, CAR 1.4 (antibody, mouse IgG1, kappa, V domains shown, p-SCN-Bn-CHX-A″-DTPA conjugated, CAR 1.4 per antibody; sites not stated, Chelator conjugate, not metal-labelled) VH: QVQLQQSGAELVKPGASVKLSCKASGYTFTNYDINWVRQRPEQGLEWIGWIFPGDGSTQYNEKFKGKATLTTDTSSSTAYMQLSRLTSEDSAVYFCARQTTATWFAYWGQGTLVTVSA VL: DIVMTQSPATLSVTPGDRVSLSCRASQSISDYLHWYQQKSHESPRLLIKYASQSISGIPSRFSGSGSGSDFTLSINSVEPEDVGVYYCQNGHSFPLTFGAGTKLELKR
Kd, nM: 10

Binder: 8H9 antibody conjugated with p-SCN-Bn-CHX-A″-DTPA, CAR 6.1 (antibody, mouse IgG1, kappa, V domains shown, p-SCN-Bn-CHX-A″-DTPA conjugated, CAR 6.1 per antibody; sites not stated, Chelator conjugate, not metal-labelled) VH: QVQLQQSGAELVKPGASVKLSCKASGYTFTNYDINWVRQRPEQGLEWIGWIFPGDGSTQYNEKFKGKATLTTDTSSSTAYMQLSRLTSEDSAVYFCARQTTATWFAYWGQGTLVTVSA VL: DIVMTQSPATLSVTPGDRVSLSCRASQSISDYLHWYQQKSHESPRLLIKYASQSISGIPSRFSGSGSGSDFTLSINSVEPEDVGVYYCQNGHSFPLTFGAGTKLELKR
Kd, nM: 53.8
